target: N-type Ca^2+ channel (Homo sapiens, UniProt Q00975); construct: host or cells: IMR-32 human neuroblastoma cells, differentiated with dibutyryl cAMP and bromodeoxyuridine; experiment: N-type Ca2+ channel blocking potency in IMR-32 cells using the fluorescent Ca2+ indicator Indo-1; type: cell-based; settings: K+-stimulated Ca2+ flux, 5 μM nitrendipine to block L-type channels, read-out: IMR32 IC50
Sequence (Q00975 whole entry): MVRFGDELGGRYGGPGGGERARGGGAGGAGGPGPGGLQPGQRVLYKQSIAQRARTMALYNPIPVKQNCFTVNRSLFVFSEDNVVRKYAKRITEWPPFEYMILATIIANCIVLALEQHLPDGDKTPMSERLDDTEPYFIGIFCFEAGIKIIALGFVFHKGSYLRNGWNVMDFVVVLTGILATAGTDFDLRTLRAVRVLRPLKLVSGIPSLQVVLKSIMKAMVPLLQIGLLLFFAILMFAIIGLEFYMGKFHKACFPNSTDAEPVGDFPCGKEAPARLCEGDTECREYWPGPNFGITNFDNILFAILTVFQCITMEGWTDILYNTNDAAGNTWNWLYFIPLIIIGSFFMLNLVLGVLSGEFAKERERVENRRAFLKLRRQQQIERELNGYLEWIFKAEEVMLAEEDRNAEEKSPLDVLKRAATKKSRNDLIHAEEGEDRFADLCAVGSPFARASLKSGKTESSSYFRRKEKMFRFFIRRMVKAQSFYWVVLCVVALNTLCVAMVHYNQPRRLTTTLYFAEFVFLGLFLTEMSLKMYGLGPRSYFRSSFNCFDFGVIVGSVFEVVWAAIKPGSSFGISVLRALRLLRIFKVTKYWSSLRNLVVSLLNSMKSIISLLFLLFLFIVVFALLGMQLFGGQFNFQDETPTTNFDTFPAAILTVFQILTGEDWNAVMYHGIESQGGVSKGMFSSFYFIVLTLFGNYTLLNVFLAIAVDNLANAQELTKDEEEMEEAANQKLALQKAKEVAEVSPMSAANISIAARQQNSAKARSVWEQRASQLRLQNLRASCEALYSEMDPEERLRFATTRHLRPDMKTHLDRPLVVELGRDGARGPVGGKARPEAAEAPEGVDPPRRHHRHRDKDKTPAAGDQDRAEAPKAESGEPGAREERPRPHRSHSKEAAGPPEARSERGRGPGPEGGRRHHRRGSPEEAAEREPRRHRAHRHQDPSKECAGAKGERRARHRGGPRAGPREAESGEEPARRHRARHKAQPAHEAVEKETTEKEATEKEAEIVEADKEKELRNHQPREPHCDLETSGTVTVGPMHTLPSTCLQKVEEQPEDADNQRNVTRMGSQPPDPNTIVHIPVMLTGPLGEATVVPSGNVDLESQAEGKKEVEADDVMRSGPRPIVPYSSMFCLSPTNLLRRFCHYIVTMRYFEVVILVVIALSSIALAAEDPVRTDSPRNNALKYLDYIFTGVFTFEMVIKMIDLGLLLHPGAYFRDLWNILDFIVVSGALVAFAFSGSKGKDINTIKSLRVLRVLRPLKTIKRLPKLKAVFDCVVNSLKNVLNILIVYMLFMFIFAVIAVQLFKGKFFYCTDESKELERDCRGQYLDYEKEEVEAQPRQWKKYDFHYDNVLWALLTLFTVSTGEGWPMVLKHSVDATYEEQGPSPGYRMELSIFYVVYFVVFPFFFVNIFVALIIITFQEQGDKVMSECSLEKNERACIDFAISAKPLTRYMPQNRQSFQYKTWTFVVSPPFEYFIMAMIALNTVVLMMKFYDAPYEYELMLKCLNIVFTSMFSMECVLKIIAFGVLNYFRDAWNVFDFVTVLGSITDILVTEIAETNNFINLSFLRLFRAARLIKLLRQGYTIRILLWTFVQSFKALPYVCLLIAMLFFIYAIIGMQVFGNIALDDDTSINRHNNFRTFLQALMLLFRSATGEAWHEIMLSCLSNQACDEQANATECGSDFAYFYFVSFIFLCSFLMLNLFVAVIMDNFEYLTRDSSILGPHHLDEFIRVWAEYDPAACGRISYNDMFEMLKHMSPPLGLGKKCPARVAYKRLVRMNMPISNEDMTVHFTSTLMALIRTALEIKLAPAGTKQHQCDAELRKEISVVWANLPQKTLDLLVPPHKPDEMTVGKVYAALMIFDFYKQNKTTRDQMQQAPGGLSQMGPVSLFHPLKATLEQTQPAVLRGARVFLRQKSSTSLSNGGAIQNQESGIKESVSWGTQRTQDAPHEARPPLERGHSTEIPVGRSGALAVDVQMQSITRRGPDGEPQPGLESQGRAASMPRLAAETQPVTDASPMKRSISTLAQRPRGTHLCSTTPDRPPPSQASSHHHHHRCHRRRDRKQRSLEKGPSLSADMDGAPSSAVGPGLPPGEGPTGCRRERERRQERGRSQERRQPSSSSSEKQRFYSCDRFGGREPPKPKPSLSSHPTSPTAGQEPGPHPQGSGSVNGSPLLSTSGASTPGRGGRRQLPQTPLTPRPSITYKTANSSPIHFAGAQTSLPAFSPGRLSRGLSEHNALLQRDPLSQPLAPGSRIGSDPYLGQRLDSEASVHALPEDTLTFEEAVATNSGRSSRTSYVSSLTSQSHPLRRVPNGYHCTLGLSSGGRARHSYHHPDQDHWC
Sequence (P54289 25-956 partner limits assumed): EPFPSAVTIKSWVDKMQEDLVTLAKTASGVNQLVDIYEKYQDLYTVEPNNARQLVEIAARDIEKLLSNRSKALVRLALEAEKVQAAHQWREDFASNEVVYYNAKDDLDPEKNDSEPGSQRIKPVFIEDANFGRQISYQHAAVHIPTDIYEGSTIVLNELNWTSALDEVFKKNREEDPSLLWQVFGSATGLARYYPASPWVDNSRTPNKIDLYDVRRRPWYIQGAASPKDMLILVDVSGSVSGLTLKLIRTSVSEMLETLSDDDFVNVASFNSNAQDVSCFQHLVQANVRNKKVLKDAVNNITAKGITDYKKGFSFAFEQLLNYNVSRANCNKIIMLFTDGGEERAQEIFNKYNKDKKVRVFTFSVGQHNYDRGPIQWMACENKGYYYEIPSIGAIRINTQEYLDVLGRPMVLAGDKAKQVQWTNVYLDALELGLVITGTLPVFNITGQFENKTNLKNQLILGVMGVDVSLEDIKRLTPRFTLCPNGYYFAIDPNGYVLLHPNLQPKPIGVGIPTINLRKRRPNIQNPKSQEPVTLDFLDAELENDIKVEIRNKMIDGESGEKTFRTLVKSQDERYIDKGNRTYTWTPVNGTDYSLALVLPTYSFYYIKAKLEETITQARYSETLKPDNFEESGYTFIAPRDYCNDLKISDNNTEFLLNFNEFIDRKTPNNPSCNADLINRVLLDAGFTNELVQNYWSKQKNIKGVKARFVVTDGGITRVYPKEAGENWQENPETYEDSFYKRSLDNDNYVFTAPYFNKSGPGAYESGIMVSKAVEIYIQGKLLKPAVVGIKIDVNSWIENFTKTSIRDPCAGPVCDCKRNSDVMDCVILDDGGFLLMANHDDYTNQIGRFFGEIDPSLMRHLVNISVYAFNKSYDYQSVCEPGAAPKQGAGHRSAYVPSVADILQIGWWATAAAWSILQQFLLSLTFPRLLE
Sequence (P54289 957-1103 partner limits assumed): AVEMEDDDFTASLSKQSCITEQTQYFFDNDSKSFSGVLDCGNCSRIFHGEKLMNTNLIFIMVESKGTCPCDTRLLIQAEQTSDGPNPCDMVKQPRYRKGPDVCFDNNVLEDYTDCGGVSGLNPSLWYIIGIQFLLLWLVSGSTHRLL
Sequence (P54284 whole entry partner): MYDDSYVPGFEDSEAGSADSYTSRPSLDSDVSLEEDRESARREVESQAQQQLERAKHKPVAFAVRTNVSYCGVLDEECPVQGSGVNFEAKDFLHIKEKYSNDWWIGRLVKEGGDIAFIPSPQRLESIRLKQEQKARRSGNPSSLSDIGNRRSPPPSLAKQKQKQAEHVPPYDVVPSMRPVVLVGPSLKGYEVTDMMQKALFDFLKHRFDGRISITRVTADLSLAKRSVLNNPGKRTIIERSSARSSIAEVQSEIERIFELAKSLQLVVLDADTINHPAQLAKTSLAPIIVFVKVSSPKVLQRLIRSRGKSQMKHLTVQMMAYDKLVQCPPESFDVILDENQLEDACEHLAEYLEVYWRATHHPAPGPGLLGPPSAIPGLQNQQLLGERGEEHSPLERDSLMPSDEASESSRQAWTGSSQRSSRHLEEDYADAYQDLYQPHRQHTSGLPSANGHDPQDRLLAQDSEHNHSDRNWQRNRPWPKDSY
Measurement kind: IC50 (nM)
Give just the numeric value; nM need not be written.

{"Compound": "CC(C)(C)c1ccc(CN[C@@H](Cc2ccc(OCc3ccccc3)cc2)C(=O)NCCN2CCCCC2)cc1 [Example 13]", "Experimental system": "N-type Ca^2+ channel (Homo sapiens, UniProt Q00975)", "Measurement kind": "IC50", "Recorded measurement": 700}
{"Compound": "CC(C)(C)c1ccc(CN(Cc2ccc(C(C)(C)C)cc2)[C@@H](Cc2ccc(OCc3ccccc3)cc2)C(=O)NCCN2CCCCC2)cc1 [Example 10]", "Experimental system": "N-type Ca^2+ channel (Homo sapiens, UniProt Q00975)", "Measurement kind": "IC50", "Recorded measurement": 680}
{"Compound": "CC(C)(C)c1ccc(CNC(CNCCN2CCCCC2)Cc2ccc(OCc3ccccc3)cc2)cc1 (stereo not shown) [Example 12]", "Experimental system": "N-type Ca^2+ channel (Homo sapiens, UniProt Q00975)", "Measurement kind": "IC50", "Recorded measurement": 280}

Let us move to another entry and its IC50.
Entry CC(C)CCN(CCC(C)C)[C@@H](Cc1ccc(OCc2ccccc2)cc1)C(=O)NC(C)(C)C.Cl [Example 3, monohydrochloride] ; IC50 = 760

---

biological target: N-type Ca^2+ channel (Homo sapiens); construct: host or cells: IMR-32 human neuroblastoma cells, differentiated with dibutyryl cAMP and bromodeoxyuridine; assay: N-type Ca2+ channel blocking potency in IMR-32 cells using the fluorescent Ca2+ indicator Indo-1; assay type: cell-based; details: K+-stimulated Ca2+ flux, 5 μM nitrendipine to block L-type channels, read-out: IMR32 IC50
pIC50: −log10 of the molar value. Counter-ions that a name gives are not always drawn.
Please mark True if the recorded pIC50 is equal to or greater than 6, and False if it falls below.

Take a look at these entries with their results.
{"Compound": "CC(C)(C)NCC(Cc1ccc(OCc2ccccc2)cc1)NCc1ccc(C(C)(C)C)cc1 (stereo not shown)", "Assigned label": "True"}
{"Compound": "CC(C)(C)c1ccc(CN(Cc2ccc(C(C)(C)C)cc2)C(CNCCN2CCCCC2)Cc2ccc(OCc3ccccc3)cc2)cc1 (stereo not shown)", "Assigned label": "True"}
{"Compound": "CC(C)CCN(CCC(C)(C)C)[C@@H](Cc1ccc(OCc2ccccc2)cc1)C(=O)NC(C)(C)C.Cl [Example 6, monohydrochloride]", "Assigned label": "True"}

Moving on to the next compound.
In: Hi, just wondering whether CC(C)(C)NC(=O)[C@H](Cc1ccc(OCc2ccccc2)cc1)NCc1ccc(C(C)(C)C)cc1 [Example 9, monohydrochloride] shows pIC50 of 6 or higher.
Out: False

---

Listed compounds paired with reported IC50
biological target: N-type Ca^2+ channel (Homo sapiens); test: N-type Ca2+ channel blocking potency in IMR-32 cells using the fluorescent Ca2+ indicator Indo-1; conditions: K+-stimulated Ca2+ flux, 5 μM nitrendipine to block L-type channels, read-out: IMR32 IC50
Where a name gives a salt, the structure may show the parent alone.
Give just the numeric value; nM need not be written.

{"Compound": "CC(C)(C)NC(=O)[C@H](Cc1ccc(OCc2ccccc2)cc1)NC(=O)C1(c2ccccc2)CCCC1", "Uom": "nM", "Recorded measurement": 1200}
{"Compound": "CC(C)(C)CCN(CCC(C)(C)C)[C@@H](Cc1ccc(OCc2ccccc2)cc1)C(=O)NC(C)(C)C [Example 8, monohydrochloride]", "Uom": "nM", "Recorded measurement": 790}

Let us move to another entry and its IC50.
Entry CC(C)(C)CCN[C@@H](Cc1ccc(OCc2ccccc2)cc1)C(=O)NC(C)(C)C [Example 7, monohydrochloride] ; IC50 = 1400
